Reference for the values: paper PMC9090415

Target: UniProt Q8ILY1
Assay: Fluorescence-based high-throughput DNA polymerase assay (molecular beacon), primary screen and dose-response
Assay type: biochemical
Conditions: DRC-1; read at 90'; concentration 5
Recorded measurements of % inhibition Apol 90' 5, one per entry
ASSAY_METRIC: % inhibition Apol 90' 5 (%)

MOLECULE	TEST_VALUE
C#CC(C=CC)OC(=O)c1ccccc1C(=O)O (stereo not shown)	4.145
Cc1ccsc1Cn1c(C)ccc1C	-2.713
Cc1cccc(-c2noc(C(=O)NNC(=O)C(Cl)(Cl)Cl)n2)c1	-0.4833
CC(=O)OCC1=C(C(=O)[O-])N2C(=O)[C@@H](NC(=O)Cc3cccs3)[C@H]2SC1.[Na+]	-0.282

====

Target: P. falciparum apicoplast DNA polymerase (Pf-apPOL) (Plasmodium falciparum)
Test: Fluorescence-based high-throughput DNA polymerase assay (molecular beacon), primary screen and dose-response
Format: biochemical
Details: DRC-2; 40'; concentration 80
Tag: Fulfilled if measured % inhibition Apol 40' is not below 60%, Not fulfilled if it is.

MOLECULE	ANSWER_LABEL
Cn1nc(-c2nnc(-c3ccccc3F)o2)c2c1CCN(C(=O)c1ccccc1Cl)C2	Not fulfilled
COc1cc(NC(=O)c2ccccc2)c(OC)cc1NC(=O)Cc1cccs1	Not fulfilled
CCOc1nc2cccc(C(=O)OC(C)OC(=O)OC3CCCCC3)c2n1Cc1ccc(-c2ccccc2-c2nnn[nH]2)cc1 (stereo not shown)	Fulfilled
Cc1ccsc1Cn1c(C)ccc1C	Fulfilled
O=C1Nc2ccc(I)cc2C1=Cc1cc(Br)c(O)c(Br)c1	Fulfilled
CC(=O)Nc1cc(C(=O)c2cccs2)nn(-c2ccc(Cl)cc2)c1=O	Not fulfilled
Cc1ccc(C)n1-c1ccc(C(=O)NNC(=O)c2ccc3nccnc3c2)cc1	Fulfilled
Nc1c(S(=O)(=O)O)cc(Nc2ccccc2)c2c1C(=O)c1ccccc1C2=O	Fulfilled
COc1ccc(NC(=O)Cn2ccc3c(=O)[nH]ccc32)cc1Cl [Molecule 10, COc1ccc(cc1Cl)NC(=O)Cn1ccc2c1cc[nH]c2=O]	Not fulfilled
Cc1ccc(CCNC(=O)c2cnn3c(O)c(Cc4ccccc4F)c(C)nc23)cc1	Fulfilled
Cc1cccc2c(C(=O)NC(C)C)cc(N(C)C)nc12	Not fulfilled
O=c1cc(-c2ccccc2Cl)oc2c(NS(=O)(=O)c3cc(Cl)cc(Cl)c3O)ccc(O)c12	Fulfilled
COc1ccc(C2CC(c3ccc(Cl)cc3Cl)Nc3nc(N)nn32)cc1OC (stereo not shown)	Not fulfilled
CCC(C)NC(=O)c1cc(NC(C)=O)cc2nc(C)ccc12 (stereo not shown)	Fulfilled
Cc1cc(C)cc(-n2nc3c(c2NC(=O)c2ccco2)CSC3)c1	Fulfilled
Cc1cc(C)c2c(O)nc(SCC(=O)c3ccc(O)c(O)c3)nc2n1	Not fulfilled
COc1ccc(CNC(=O)Cn2nc3c(c2NC(=O)Cc2cccs2)CSC3)cc1	Not fulfilled
N#CC(=NNc1cc(C(F)(F)F)cc(C(F)(F)F)c1)C(=O)c1ccco1	Fulfilled
O=c1[nH]c2ccc(Br)cc2c(-c2ccccc2)c1C1=NNC(c2ccco2)C1 (stereo not shown)	Fulfilled
COCCN(CCOC)Cc1c(O)ccc2c1OC(=Cc1cc(Br)ccc1OC)C2=O	Fulfilled
O=c1cc(CN2CCCCC2)c2cc3c(cc2o1)OCO3	Fulfilled
COc1ccc(C=C2Oc3c(ccc4c3CN(c3ccc5c(c3)OCO5)CO4)C2=O)cc1OC	Not fulfilled
Cl.NC(CO)C(=O)NNCc1ccc(O)c(O)c1O (stereo not shown)	Fulfilled
O=C(CSc1nnc(-c2ccco2)[nH]1)c1ccc(Cl)cc1	Not fulfilled
O=C(Cn1ccc2c(=O)[nH]ccc21)Nc1cc(F)ccc1F [Molecule 42, O=C(Cn1ccc2c1cc[nH]c2=O)Nc1cc(F)ccc1F]	Not fulfilled
CC(=O)Nc1cc(C(=O)NC(C)C)c2ccc(C)nc2c1	Fulfilled
Cc1cc(C)c(O)c(/N=C/c2cc([N+](=O)[O-])cc(Br)c2O)c1	Fulfilled
Cc1ccc(NC(=O)Cn2ccc3c(=O)[nH]ccc32)cc1F [Molecule 48, O=C(Cn1ccc2c1cc[nH]c2=O)Nc1ccc(c(c1)F)C]	Fulfilled
CN(C)S(=O)(=O)Oc1ccc(-c2noc(-c3ccc(Oc4cc(Cl)cc(Cl)c4)o3)n2)cc1	Fulfilled
COc1ccc(S(=O)(=O)/N=C2\NC(=O)/C(=C3\C(=O)Nc4ccc([N+](=O)[O-])cc43)S2)cc1	Fulfilled

====

Target: bacteriophage T4 DNA polymerase (Enterobacteria phage T4, UniProt P04415)
Construct: made in house
Sequence (P04415 whole entry): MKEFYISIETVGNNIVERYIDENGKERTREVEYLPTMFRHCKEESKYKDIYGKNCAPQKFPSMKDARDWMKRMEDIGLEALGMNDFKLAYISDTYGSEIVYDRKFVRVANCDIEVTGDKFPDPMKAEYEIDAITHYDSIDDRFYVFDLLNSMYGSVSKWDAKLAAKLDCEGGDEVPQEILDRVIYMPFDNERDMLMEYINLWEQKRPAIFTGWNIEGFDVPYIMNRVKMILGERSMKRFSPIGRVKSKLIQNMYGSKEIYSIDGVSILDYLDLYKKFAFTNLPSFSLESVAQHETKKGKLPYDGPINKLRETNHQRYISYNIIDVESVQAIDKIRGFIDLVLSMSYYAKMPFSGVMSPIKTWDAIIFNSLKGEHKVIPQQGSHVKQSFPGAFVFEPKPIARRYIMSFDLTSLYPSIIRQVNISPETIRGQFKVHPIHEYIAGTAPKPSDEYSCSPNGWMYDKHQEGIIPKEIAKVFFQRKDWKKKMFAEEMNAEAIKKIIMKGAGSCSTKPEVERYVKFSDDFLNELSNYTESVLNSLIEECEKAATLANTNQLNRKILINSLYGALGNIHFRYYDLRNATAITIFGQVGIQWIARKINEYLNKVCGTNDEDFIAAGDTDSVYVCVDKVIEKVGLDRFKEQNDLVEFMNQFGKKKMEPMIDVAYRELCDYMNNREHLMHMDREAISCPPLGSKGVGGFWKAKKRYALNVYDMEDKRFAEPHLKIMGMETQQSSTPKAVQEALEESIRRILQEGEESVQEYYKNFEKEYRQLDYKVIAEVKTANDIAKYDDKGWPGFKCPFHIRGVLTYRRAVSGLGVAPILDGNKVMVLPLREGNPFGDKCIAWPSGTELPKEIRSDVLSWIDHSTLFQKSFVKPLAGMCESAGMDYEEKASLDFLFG
Experiment: Counter-screen against bacteriophage T4 DNA polymerase
Format: biochemical
Settings: DRC-1; read at 10'; concentration 5
ASSAY_METRIC: % inhibition T4 10' 5 (%)

RECORD_SMILES	ASSAY_METRIC	U	TEST_VALUE
CC(=O)OCC1=C(C(=O)[O-])N2C(=O)[C@@H](NC(=O)Cc3cccs3)[C@H]2SC1.[Na+]	% inhibition T4 10' 5	%	17.9504
Cn1nc(-c2nc(-c3ccccc3)no2)c2c1CCN(C(=O)Cc1cccs1)C2	% inhibition T4 10' 5	%	6
O=C(CCc1csc(NC(=O)Nc2ccccc2)n1)Nc1nc2ccccc2s1	% inhibition T4 10' 5	%	7.751

====

Target: bacteriophage T4 DNA polymerase (Enterobacteria phage T4, UniProt P04415)
Construct: made in house
Experiment: Counter-screen against bacteriophage T4 DNA polymerase
Assay type: biochemical
Settings: DRC-2; 90'; concentration 40
Method: Codon-optimized, exonuclease-deficient Pf-apPOL was overexpressed in E. coli BL21 (DE3) and purified as described. The protein was dialysed against two, 1-liter changes of 20 mM Tris-HCl (pH 8.0), 400 mM NaCl, and 20% glycerol. […] Each compound was tested in a dose-response format to determine IC50 values. […] T4 DNA polymerase can be produced in large quantities, and is in the same family (B-family) as the replicative human DNA polymerases (α, δ, and ε)[20].

COMPOUND	TESTED_TARGET	% inhibition T4 90' (%)
O=C(c1c[nH]c2ncccc12)N1CCCC1 [Molecule 63, O=C(c1c[nH]c2c1cccn2)N1CCCC1]	bacteriophage T4 DNA polymerase (Enterobacteria phage T4, UniProt P04415)	31
Cc1ccc(NC(=O)C2CCN(C(=O)c3cc4ccsc4[nH]3)CC2)c(Br)c1	bacteriophage T4 DNA polymerase (Enterobacteria phage T4, UniProt P04415)	6
Cc1nc(/N=N/c2ccc(C(=O)[O-])cc2)c(COP(=O)([O-])[O-])c(C=O)c1O.[Na+].[Na+].[Na+]	bacteriophage T4 DNA polymerase (Enterobacteria phage T4, UniProt P04415)	-11
Cc1ccc(C)n1-c1ccc(C(=O)NNC(=O)c2ccc3nccnc3c2)cc1	bacteriophage T4 DNA polymerase (Enterobacteria phage T4, UniProt P04415)	29
O=C(O)CCS(=O)(=O)c1ccc(-c2ccc(S(=O)(=O)CCC(=O)O)cc2)cc1	bacteriophage T4 DNA polymerase (Enterobacteria phage T4, UniProt P04415)	-17
CC(=O)c1cc2c(N)c(/C(N)=N/C#N)sc2nc1C	bacteriophage T4 DNA polymerase (Enterobacteria phage T4, UniProt P04415)	-11
O=C(Cc1cc(=O)[nH]c(SCc2ccccc2)n1)Nc1ccc2c(c1)OCO2	bacteriophage T4 DNA polymerase (Enterobacteria phage T4, UniProt P04415)	9
O=C(NC(C(Cl)Cl)S(=O)(=O)c1ccccc1)c1ccccc1 (stereo not drawn)	bacteriophage T4 DNA polymerase (Enterobacteria phage T4, UniProt P04415)	-18
Cc1cccc2c(C(=O)NC(C)C)cc(N(C)C)nc12	bacteriophage T4 DNA polymerase (Enterobacteria phage T4, UniProt P04415)	31
COc1ccc(-c2cc3nc4c(c(=O)n3[nH]2)CCN(C(=O)CCc2ccccc2)C4)cc1	bacteriophage T4 DNA polymerase (Enterobacteria phage T4, UniProt P04415)	-30
CCOC(=O)C1=C2c3cc(OC)c(OC)cc3CC(C)(C)N2C(=O)C1=O	bacteriophage T4 DNA polymerase (Enterobacteria phage T4, UniProt P04415)	37
O=C(Nc1ccc2c(c1)Cc1cc(NC(=O)c3ccco3)ccc1-2)c1ccco1	bacteriophage T4 DNA polymerase (Enterobacteria phage T4, UniProt P04415)	35

====

Biological target: P. falciparum apicoplast DNA polymerase (Pf-apPOL) (Plasmodium falciparum, UniProt Q8ILY1)
Sequence (Q8ILY1 entry or part of it): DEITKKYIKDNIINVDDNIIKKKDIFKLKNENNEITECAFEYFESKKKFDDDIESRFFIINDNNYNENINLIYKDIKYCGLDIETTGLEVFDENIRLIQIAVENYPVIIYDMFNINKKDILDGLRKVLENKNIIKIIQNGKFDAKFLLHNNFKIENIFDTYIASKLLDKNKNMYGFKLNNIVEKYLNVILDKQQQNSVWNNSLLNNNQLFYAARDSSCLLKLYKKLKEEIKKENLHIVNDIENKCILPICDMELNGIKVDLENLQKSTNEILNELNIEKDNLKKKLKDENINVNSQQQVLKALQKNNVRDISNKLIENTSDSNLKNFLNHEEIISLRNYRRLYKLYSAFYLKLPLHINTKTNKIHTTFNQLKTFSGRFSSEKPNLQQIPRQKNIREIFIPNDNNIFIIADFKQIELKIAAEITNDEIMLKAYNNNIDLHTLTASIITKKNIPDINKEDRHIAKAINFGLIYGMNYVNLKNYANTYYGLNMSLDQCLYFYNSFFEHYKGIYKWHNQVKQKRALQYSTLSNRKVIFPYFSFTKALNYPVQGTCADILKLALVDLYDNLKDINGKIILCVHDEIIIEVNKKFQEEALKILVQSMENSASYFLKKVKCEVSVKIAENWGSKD
Assay: Fluorescence-based high-throughput DNA polymerase assay (molecular beacon), primary screen and dose-response;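 on % inhibition Apol 40': compound concentration given in µM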
Type: biochemical
Settings: DRC-2; 40'; concentration 20
Tag: Y if measured % inhibition Apol 40' is not below 50%, N if it is.

MOLECULE	ANSWER_LABEL
CC(=O)OCC1=C(C(=O)[O-])N2C(=O)[C@@H](NC(=O)Cc3cccs3)[C@H]2SC1.[Na+]	N
CCCCCCCCCCCC1SCC(C(=O)O)N1C(C)=O (centres unmarked)	N
CC(C)(C)c1cc(C(=O)C(C#N)=NNc2cccc(Cl)c2)no1	Y
Cc1nc(/N=N/c2ccc(C(=O)[O-])cc2)c(COP(=O)([O-])[O-])c(C=O)c1O.[Na+].[Na+].[Na+]	Y
CCCCc1ccc(NC(=O)CSc2nc(O)c(C#N)c(C3CCCCC3)n2)c(C)c1	N
OC(C#Cc1ccccc1)c1ccco1 (centres unmarked)	Y
O=C(Cn1ccc2c(=O)[nH]ccc21)Nc1cc(F)ccc1F [Molecule 42, O=C(Cn1ccc2c1cc[nH]c2=O)Nc1cc(F)ccc1F]	Y
CCOc1ccc(/C=C2\N=C(c3cc([N+](=O)[O-])cc([N+](=O)[O-])c3)OC2=O)cc1	Y
